Data provenance: patent US20240384268A1

- measured target: human TLR7 (Homo sapiens, UniProt Q9NYK1)
- Construct: HA; host or cells: 293XL-hTLR7-HA (HEK293)
- Sequence (Q9NYK1 27-1049): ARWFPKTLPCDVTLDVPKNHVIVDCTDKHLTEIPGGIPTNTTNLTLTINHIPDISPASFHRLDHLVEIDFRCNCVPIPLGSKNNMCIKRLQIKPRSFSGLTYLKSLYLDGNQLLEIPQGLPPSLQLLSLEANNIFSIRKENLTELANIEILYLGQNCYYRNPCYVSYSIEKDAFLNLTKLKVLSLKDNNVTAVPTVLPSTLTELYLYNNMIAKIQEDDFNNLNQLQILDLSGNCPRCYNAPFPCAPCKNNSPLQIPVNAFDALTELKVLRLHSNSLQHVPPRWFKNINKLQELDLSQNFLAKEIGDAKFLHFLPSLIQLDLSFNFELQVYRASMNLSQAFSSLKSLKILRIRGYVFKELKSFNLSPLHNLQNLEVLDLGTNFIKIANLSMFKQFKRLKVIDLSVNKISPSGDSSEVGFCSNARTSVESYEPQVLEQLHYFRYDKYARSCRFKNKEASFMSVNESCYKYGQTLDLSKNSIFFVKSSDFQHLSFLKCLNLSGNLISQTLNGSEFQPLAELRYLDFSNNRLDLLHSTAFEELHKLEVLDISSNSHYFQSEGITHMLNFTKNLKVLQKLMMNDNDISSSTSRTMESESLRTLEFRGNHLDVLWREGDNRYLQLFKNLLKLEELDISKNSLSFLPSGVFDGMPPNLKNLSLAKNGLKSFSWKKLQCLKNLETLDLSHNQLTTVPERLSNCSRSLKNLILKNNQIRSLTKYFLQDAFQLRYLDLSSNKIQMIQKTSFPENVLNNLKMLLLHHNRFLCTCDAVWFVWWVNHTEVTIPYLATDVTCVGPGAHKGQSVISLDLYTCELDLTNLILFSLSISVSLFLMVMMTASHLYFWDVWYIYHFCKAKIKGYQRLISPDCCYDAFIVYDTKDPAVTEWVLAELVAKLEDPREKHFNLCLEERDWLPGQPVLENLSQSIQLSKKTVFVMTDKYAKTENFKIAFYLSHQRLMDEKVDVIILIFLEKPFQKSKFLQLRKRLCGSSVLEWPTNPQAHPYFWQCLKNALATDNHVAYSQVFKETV
- assay info: HEK-TLR7 NF-κB-luciferase reporter, R848 stimulation
- Assay type: cell-based
- settings: ASO 100 nM; relative to R848 only, given as fraction
- Description: In such examples, inhibition of TLR7 activity can be identified by observation of an overall decreased TLR7 response of the cell population, or a lower proportion of cells having TLR7-positive activity as compared to positive control condition in which cells are treated with TLR7 agonist in the absence of the oligonucleotide (or in the presence of an appropriate control inhibitory agent). […] TLR7 activity can be determined by a luciferase assay, which measures activated NF-κB by luminescence. […]
Each entry gets NO if its TLR7 100 nM (averaged NF-κB-Luciferase level relative to R848 condition) stays under 0.5, and YES if its TLR7 100 nM (averaged NF-κB-Luciferase level relative to R848 condition) is 0.5 or above.

Reference set (4 entries):
| sequence code | measured target | class label |
| --- | --- | --- |
| TGGTGGCCACCCATCT (antisense; LNA-modified, pattern not given here) [CTNN2B-2479 LNA V1] | human TLR7 (Homo sapiens, UniProt Q9NYK1) | YES |
| TCCACAATCAAGACAT (antisense; LNA-modified, pattern not given here) [HPRT LNA-551 KL] | human TLR7 (Homo sapiens, UniProt Q9NYK1) | YES |
| GGTTACGGCTCAGTAT (antisense; LNA-modified, pattern not given here) [CAMSAP1-4295 LNA KL] | human TLR7 (Homo sapiens, UniProt Q9NYK1) | NO |
| ATGGCCTCCCATCTCC (antisense; LNA-modified, pattern not given here) [HPRT LNA-330 V1] | human TLR7 (Homo sapiens, UniProt Q9NYK1) | YES |

-- ask Has AACCCCTTTCACCATC (antisense; LNA-modified, pattern not given here) [MB21D1-689 LNA KL] a recorded TLR7 100 nM (averaged NF-κB-Luciferase level relative to R848 condition) greater than or equal to 0.5?
-- reply YES

---

- measured target: human TLR7 (Homo sapiens, UniProt Q9NYK1)
- Construct: HA; host or cells: 293XL-hTLR7-HA (HEK293)
- assay info: HEK-TLR7 NF-κB-luciferase reporter, R848 stimulation
- Assay type: cell-based
- settings: MOE-modified ASO at 500 nM; averaged NF-κB-Luciferase relative to R848 condition
Let's look at some sequences and their measured TLR7 500 nM.
Give your answer as a number; write no unit.

Observe how each entry below is paired with its result.
| sequence code | parameter measured | experimental result |
| --- | --- | --- |
| GGAGGTCTTGGCTTCGTGGA (antisense; 2'-MOE modified, pattern not given here) [MB21D1-524 MOE] | TLR7 500 nM | 0.091 |
| GGGTATCGAAAGAGTCTGGA (antisense; 2'-MOE modified, pattern not given here) [EGFR-3908 MOE] | TLR7 500 nM | 0.079 |
| CCAACACTTCGTGGGGTCCT (antisense; 2'-MOE modified, pattern not given here) [HPRT-666 MOE] | TLR7 500 nM | 0.334 |

Short answer for ATGTGATGGCCTCCCATCTC (antisense; 2'-MOE modified, pattern not given here) [HPRT-333 MOE] : TLR7 500 nM was 0.345

Short answer for TGGGTTACGGCTCAGTATGG (antisense; 2'-MOE modified, pattern not given here) [CAMSAP1-4295 MOE] : TLR7 500 nM was 0.167

Short answer for CGGAGGTCTTGGCTTCGTGG (antisense; 2'-MOE modified, pattern not given here) [MB21D1-525 MOE] : TLR7 500 nM was 0.138

Short answer for TTGCCATGCTGGCTCGGACT (antisense; 2'-MOE modified, pattern not given here) [CAMSAP1-2584 MOE] : TLR7 500 nM was 0.138

Short answer for GCCGCTTTTCTGTCTGGTTC (antisense; 2'-MOE modified, pattern not given here) [CTNN2B-311 MOE] : TLR7 500 nM was 0.268

Short answer for GGTGGTGGCCACCCATCTCA (antisense; 2'-MOE modified, pattern not given here) [CTNN2B-2479 MOE] : TLR7 500 nM was 0.192

Short answer for ATCCAACACTTCGTGGGGTC (antisense; 2'-MOE modified, pattern not given here) [HPRT-668 MOE] : TLR7 500 nM was 0.611

Short answer for ATGCCATCCACTTGATAGGC (antisense; 2'-MOE modified, pattern not given here) [EGFR-2874 MOE] : TLR7 500 nM was 0.390

Short answer for CTCTTGAAGCATCGTATCAC (antisense; 2'-MOE modified, pattern not given here) [CTNN2B-3648 MOE] : TLR7 500 nM was 0.341

Short answer for ACCCACTTGGCAGACCATCA (antisense; 2'-MOE modified, pattern not given here) [CTNN2B-1575 MOE] : TLR7 500 nM was 0.336

Short answer for CTGTGATCTTGACATGCTGC (antisense; 2'-MOE modified, pattern not given here) [EGFR-2790 MOE] : TLR7 500 nM was 0.206

Short answer for TTGGCTCGGCTTGCCTACTT (antisense; 2'-MOE modified, pattern not given here) [CAMSAP1-5594 MOE] : TLR7 500 nM was 0.204

Short answer for GATGGCCTCCCATCTCCTTC (antisense; 2'-MOE modified, pattern not given here) [HPRT-329 MOE] : TLR7 500 nM was 0.336

Short answer for TAGTCAAGGGCATATCCTAC (antisense; 2'-MOE modified, pattern not given here) [HPRT-732 MOE] : TLR7 500 nM was 0.191
